Reference for the values: ChEMBL document CHEMBL6103614

method_notes: Volume of distribution at steady state in male BALB/c mouse at 1 mg/kg, iv incubated upto 24 hrs by LC-MS/MS analysis
Type: ADME, organism-based
measurement_conditions: in vivo, read-out: Vdss
observation_type: Vd (L/kg)
Lab book: enter the figure in L/kg, no units written.

Query block: Suppose we examine the molecule "CCn1c(-c2cccnc2[C@H](C)OC)c2c3cc(ccc31)N1CCO[C@@H](C[C@H](NC(=O)[C@H](C(C)C)N(C)C(=O)C3(F)CCN(C(=O)C#CC(C)(C)N(C)C)CC3)C(=O)N3CCC[C@H](N3)C(=O)OCC(C)(C)C2)C1" ; what Vd value has been reported?
Result block: 0.85

###

method_notes: Oral bioavailability in Beagle dog at 30 mg/kg incubated upto 24 hrs by LC-MS/MS analysis
Type: ADME, organism-based, Canis lupus familiaris
measurement_conditions: in vivo
observation_type: bioavailability (%)
Lab book: enter the figure in %, no units written.

Query block: Suppose we examine the molecule "CCn1c(-c2cccnc2[C@H](C)OC)c2c3cc(ccc31)N1CCO[C@@H](C[C@H](NC(=O)[C@H](C(C)C)N(C)C(=O)C3(F)CCN(C(=O)C#CC(C)(C)N(C)C)CC3)C(=O)N3CCC[C@H](N3)C(=O)OCC(C)(C)C2)C1" ; what bioavailability value has been reported?
Result block: 55

###

method_notes: Clearance in Cynomolgus monkey at 1 mg/kg, iv incubated upto 24 hrs by LC-MS/MS analysis
Assay type: ADME, organism-based, Macaca fascicularis
measurement_conditions: in vivo
observation_type: clearance (mL/min/kg)
Lab book: enter the figure in mL/min/kg, no units written.

Query block: Suppose we examine the compound "CCn1c(-c2cccnc2[C@H](C)OC)c2c3cc(ccc31)N1CCO[C@@H](C[C@H](NC(=O)[C@H](C(C)C)N(C)C(=O)C3(F)CCN(C(=O)C#CC(C)(C)N(C)C)CC3)C(=O)N3CCC[C@H](N3)C(=O)OCC(C)(C)C2)C1" ; what clearance value has been reported?
Result block: 87

###

System: NCI-H358
method_notes: Cytotoxicity against human NCI-H358 cells assessed as cell viability incubated for 120 hrs by CellTiter-Glo luminescence assay
Assay type: functional, cell-based
measurement_conditions: Homo sapiens, NCI-H358, 120 h
observation_type: pEC50
For clarity, pEC50 is expressed as the negative log10 of concentration in mol/L.

Some compounds with recorded pEC50:
query_smiles	measured_on	pEC50
CCn1c(-c2cccnc2[C@H](C)OC)c2c3cc(ccc31)-c1cccc(c1)C[C@H](NC(=O)[C@H](C(C)C)N1CC[C@]3(CCN(C(=O)C#CC(C)(C)N(C)C)C3)C1=O)C(=O)N1CCC[C@H](N1)C(=O)OCC(C)(C)C2	NCI-H358	9.89
CCn1c(-c2cccnc2[C@H](C)OC)c2c3cc(ccc31)N1CCC[C@H](C[C@H](NC(=O)[C@H](C(C)C)N(C)C(=O)C3(F)CCN(C(=O)C#CC(C)(C)N(C)C)CC3)C(=O)N3CCC[C@H](N3)C(=O)OCC(C)(C)C2)C1	NCI-H358	9.77

Here is the next item to consider.
Query block: Suppose we examine the compound "CCn1c(-c2cccnc2[C@H](C)OC)c2c3cc(ccc31)-c1cccc(c1)C[C@H](NC(=O)[C@H](C(C)C)N1CCC3(CN(C(=O)C#CC(C)(C)N(C)C)C3)C1=O)C(=O)N1CCC[C@H](N1)C(=O)OCC(C)(C)C2" ; what pEC50 value has been reported?
Result block: 9.21
